experiment: osmotic lysis modulators in infected erythrocytes, primary screen, PSAC antagonist project, cell-based, P. falciparum Indochina, OD700, 3 h (AID 1156); conditions: higher = more signal, called active from +8 up or from −8 down
Measured z-score accompanies every entry in the list below.
EXPERIMENTAL_READOUT: z-score

{"columns": ["COMPOUND", "EXPERIMENTAL_READOUT", "OBSERVED_VALUE"],
 "data": [
  ["COC(=O)[C@]1(CCS(=O)(=O)c2ccccc2)N=C(c2ccc(OCCCO)cc2)O[C@@H]1c1ccccc1CN=[N+]=[N-]", "z-score", 1.82],
  ["COC(=O)c1c(CC[C@@H](CO)NC(=O)N[C@H](Cn2cc(-c3ccccc3C)nn2)C(C)C)oc(C(C)=O)c1C(=O)OC", "z-score", 1.56],
  ["O=c1cccc(-c2cccc(Cl)c2)o1", "z-score", -0.51],
  ["O=C(O)[C@]1(Cc2ccccc2)N=C(c2ccc(OCCCO)cc2)O[C@@H]1c1ccccc1", "z-score", -1.2],
  ["CN1C(=O)C2C=CC(C(O)C3CCCCC3)N(N3CCCCC3)C2C1=O (stereo unspecified)", "z-score", 0.42],
  ["C=C1C2CC3C(=C4C(CO[C@@H]4[C@H]4CCCN4S(=O)(=O)c4ccccc4[N+](=O)[O-])C4C(=O)N(C)C(=O)C34)CC2C(=O)N1C (stereo partly specified)", "z-score", -0.513],
  ["O=C(CCCCCCC(=O)Nc1ccccc1)N/N=C/c1ccccc1", "z-score", 0.0998],
  ["Cc1ccc(S[C@]2(C(=O)NC(C)C)CC(=O)N(Cc3ccccc3C(F)(F)F)[C@@H]2c2ccc(CO)cc2I)cc1", "z-score", 1.03],
  ["C=C(COC)/C(=C/C[C@@H](OC(=O)c1ccncc1)c1cccc(OCCO)c1)c1cnc2ccccc2c1", "z-score", -1.32],
  ["C=CC1c2cc(O)c(OC)cc2CCN1Cc1sc2ccccc2c1Cl (stereo unspecified)", "z-score", -0.604],
  ["CCOC(=O)C1=CC[C@@H](c2ccccc2)N(S(=O)(=O)c2ccc(C)cc2)C1", "z-score", 0.517],
  ["CC(CO)N1C(=O)[C@@H]2C3C(=O)OCCC/C=C\\[C@H]3OC23C=CCN(Cn2nnc4ccccc42)C(=O)[C@@H]13 (stereo partly specified)", "z-score", 2.14],
  ["COCCCNC(=O)[C@@]1(Sc2ccc(C)cc2)CC(=O)N(Cc2cc(C(F)(F)F)cc(C(F)(F)F)c2)[C@@H]1c1ccc(CO)cc1", "z-score", 1.03],
  ["CC(C)(C)OC(=O)CC[C@]1(C(=O)O)N=C(c2ccc(OCCCO)cc2)O[C@H]1c1ccccc1CN=[N+]=[N-]", "z-score", 0.0614],
  ["COCCOC(=O)N1C(=O)[C@@]2(c3ccccc31)[C@H](C(=O)N1CCN(c3ncccn3)CC1)[C@H]1C(=O)O[C@H](c3ccccc3)[C@H](c3ccccc3)N1[C@@H]2c1ccc(OCCO)cc1", "z-score", 0.779],
  ["CCOC(=O)C[C@H]1[C@H](OC(=O)c2ccc(-c3ccccc3)cc2)[C@@H](NC(=O)c2ccc3ccccc3n2)c2cc(OCCCO)ccc2N1C(=O)c1ccccc1", "z-score", -0.571]
]}
